target-under-test: T1, RSV postfusion F (postF), subtype A (respiratory syncytial virus subtype A, UniProt P03420 26-513)
T1 construct: also called Postfusion subtype A; F deltaFP
experimental-details: BLI
property: binding result

ADI-24831 (antibody, V domains shown, full-length IgG; also called Ab 393) VH: QVQLVESGGGLVKPGGSLRLSCAASGFTFSSYSMNWVRQAPGKGLEWVSSISSSSSYIYYADSVKGRFTISRDNAKNSLYLQMNSLRAEDTAVYYCARVPSDFWSGYYNDYWGQGTLVTVSS VL: QSVLTQPPSVSGAPGQRVTISCTGSSSNIGAGYDVHWYQQLPGTAPKLLIYGNSNRPSGVPDRFSGSKSGTSASLAITGLQAEDEADYYCQSYDSSLSGSWVFGGGTKLTVL; no binding
ADI-14347 (antibody, V domains shown, full-length IgG; also called Ab 15) VH: EVQLVESGGGLVKPGGSLRLSCAASGFTFRDYYMNWIRQAPGKGLEWVSDISASSSYTNYADSVKGRFTISRDNAKTSLYLQMNSLRAEDTAVYYCAREVVTAMGGYYFDYWGQGTLVTVSS VL: QSVVTQPPSVSGAPGQRVTISCTGSSSNIGAGYDVHWYQQLPGTAPKLLIYGNNNRPSGVPDRFSGSKSGTSASLAITGLQAEDEADYYCQSYDSSLSGSGVFGTGTKVTVL; no binding
ADI-24857 (antibody, V domains shown, full-length IgG) VH: EVQLLESGGGLVKPGGSLRLSCAASGFTFSSYSMNWVRQAPGKGLEWVSSISSSSSYIYYADSVKGRFTISRDNAKNSLYLQMNSLRAEDTAVYYCAREGYYYGSGSYLDYWGQGTLVTVSS VL: QSVVTQPPSVSGAPGQRVTISCTGSSSNIGAGYDVHWYQQLPGTAPKLLIYGNSNRPSGVPDRFSGSKSGTSASLAITGLQAEDEADYYCQSYDSSLSVVFGGGTKLTVL; no binding

Source listed as patent US20260258115A1.
